Known IC50 of a selection of compounds
- measured-on: human recombinant CBL-b (human Biotin CBL-b recombinant protein a.a. 39-426) (Homo sapiens)
- Construct: human Biotin CBL-b recombinant protein a.a; 39-426; Biotin (biotinylated)
- assay-comment: Biochemical assay for CBL-b inhibition (ligand displacement TR-FRET)
- test-context: 50 nM CBL-b, 0.3 μM Bodipy FL-Probe, read-out: IC50 (CBL-b inhibition, group)

For orientation, consider the following solved cases.
1) C[C@H]1CCCN(Cc2cc(C3CC3)nc(N3Cc4ccc(C5(Cc6nncn6C)COC5)cc4C3=O)c2)C1 :: 0.08 to 0.3 µM
2) C[C@@H]1C[C@H](C)CN(Cc2cc(N3Cc4ccc([C@H](C)Cc5nncn5C)cc4C3=O)nc(C(F)(F)F)c2)C1 (single isomer, unassigned) :: 0.08 to 0.3 µM

Switching to the query record.
Item: Cn1cnnc1CC1(c2ccc3c(c2)C(=O)N(c2cc(CN4CCC(C)(F)C4)cc(Cl)n2)C3)COC1 (stereo not drawn) | IC50: 0.08 to 0.3 µM

###

- measured-on: human recombinant CBL-b (human Biotin CBL-b recombinant protein a.a. 39-426) (Homo sapiens, UniProt Q13191)
- Construct: human Biotin CBL-b recombinant protein a.a; 39-426; Biotin (biotinylated)
- Sequence (Q13191 39-426): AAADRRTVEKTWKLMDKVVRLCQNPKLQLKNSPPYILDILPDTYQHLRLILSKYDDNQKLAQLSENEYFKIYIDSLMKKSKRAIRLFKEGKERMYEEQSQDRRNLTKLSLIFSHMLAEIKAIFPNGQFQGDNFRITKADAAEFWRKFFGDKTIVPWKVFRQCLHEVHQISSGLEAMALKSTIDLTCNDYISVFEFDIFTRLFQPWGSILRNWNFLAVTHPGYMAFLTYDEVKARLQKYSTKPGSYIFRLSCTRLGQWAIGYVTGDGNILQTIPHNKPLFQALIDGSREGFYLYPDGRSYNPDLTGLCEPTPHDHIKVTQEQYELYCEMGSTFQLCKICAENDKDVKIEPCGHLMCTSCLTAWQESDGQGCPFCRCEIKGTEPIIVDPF
- assay-comment: Biochemical assay for CBL-b inhibition (ligand displacement TR-FRET)
- test-context: 50 nM CBL-b, 0.3 μM Bodipy FL-Probe, read-out: IC50 (CBL-b inhibition, group)
pIC50: −log10 of the molar value.
Recorded pIC50 values for a group of compounds are listed next.

Some solved entries appear below for comparison.
1) C[C@H]1CCCN(Cc2cccc(N3Cc4ccc(C5(Cc6nncn6C)COC5)cc4C3=O)c2)C1 :: 5.30 to 6.52
2) C[C@H](NCc1cc(Cl)nc(N2Cc3ccc(C4(Cc5nncn5C)COC4)cc3C2=O)c1)C1CC1 (single isomer, unassigned) :: > 7.10
3) Cn1cnnc1CC1(c2ccc3c(c2)C(=O)N(c2cc(CNCC4CC4)cc(Cl)n2)C3)CCC1 :: > 7.10

// below: pIC50 requested for another compound
Record summary for C[C@@H](NCc1cscn1)c1cc(Cl)nc(N2Cc3ccc(C4(Cc5nncn5C)COC4)cc3C2=O)c1 (single isomer, unassigned) : reported pIC50 = 6.52 to 7.10

###

- measured-on: human recombinant CBL-b (human Biotin CBL-b recombinant protein a.a. 39-426) (Homo sapiens)
- Construct: human Biotin CBL-b recombinant protein a.a; 39-426; Biotin (biotinylated)
- assay-comment: Biochemical assay for CBL-b inhibition (ligand displacement TR-FRET)
- test-context: 50 nM CBL-b, 0.3 μM Bodipy FL-Probe, read-out: IC50 (CBL-b inhibition, group)
pIC50: −log10 of the molar value.
value-type: pIC50

1) Cc1cc(CNC(C2CC2)C2CC2)cc(N2Cc3ccc(-c4ccc(F)cc4-c4nncn4C)cc3C2=O)n1 :: > 7.10
2) Cc1nc(CNCC2CC2)cc(N2Cc3ccc(-c4ccc(F)cc4-c4nncn4C)cc3C2=O)n1 :: > 7.10
3) C[C@@H]1C[C@H](C)CN(Cc2cc(N3Cc4ccc(C5(Cc6nncn6C)CCC5)cc4C3=O)nc(C(F)(F)F)c2)C1 :: > 7.10

Value of measured pIC50 for the entry `Cc1cc(CNCCO)cc(N2Cc3ccc(-c4ccc(F)cc4-c4nncn4C)cc3C2=O)n1` : 6.52 to 7.10

Form field pIC50, entry `Cc1cc(CNCC2(C)COC2)cc(N2Cc3ccc(-c4ccc(F)cc4-c4nncn4C)cc3C2=O)n1` : 6.52 to 7.10

Value of measured pIC50 for the entry Cn1cnnc1CC1(c2ccc3c(c2)C(=O)N(c2cc(CNCC4CC4(F)F)cc(Cl)n2)C3)CC(C#N)C1 (stereo not shown) : > 7.10

// sample COC1CCCC1NCc1cc(Cl)nc(N2Cc3ccc(C4(Cc5nncn5C)COC4)cc3C2=O)c1 (stereo not shown) , its pIC50 was > 7.10

Numbers sourced from patent US20260226073A1.
